Readings of Kd for the listed binders
# target.entity: T1, Biotinylated Human Siglec-2/CD22 Protein, Fc, Avitag (ACROBiosystems, SI2-H82F8) (human, UniProt P20273 20-687, biotinylated (Avitag))
# T1 construct: Bought reagent; also called CD22 antigen; CD22-Fc-biotinylated antigen; not shown: Fc tag of the bought protein; Avitag
# measurement.description: SPR (Biacore 8K), CD22-Fc-biotin on SA chip, antibody as analyte, 1:1 binding model

{"binder": "mAb-6 (antibody, human IgG1, kappa, V domains shown, Humanized IgG1/kappa antibody; also called V4 HC + V4 LC) VH: EVQLVESGGGLVKPGGSLRLSCAASGFAFSIYDMSWIRQAPGKCLEWVAYISSGGGTTYYPGSVKGRFTISRENAKNSLYLQMNSLRAGDTAVYYCARHSGYGTHWGVLFAYWGQGTMVTVSS VL: DIQMTQSPSTLSASVGDRVTITCRASQDISNYLNWFQQRPGQSPRLLIYYTSILHSGVPSRFSGSGSGTDYTLTISSLQPEDFATYYCQQGNTLPWTFGCGTKVEIKR", "Kd": "0.315 nM"}
{"binder": "mAb-2 (antibody, human IgG1, kappa, V domains shown, Humanized IgG1/kappa antibody; also called V2 HC + V2 LC) VH: EVQLVESGGGLVKPGGSLRLSCAASGFAFSIYDMSWVRQTPEKCLEWVAYISSGGGTTYYPDSVKGRFTISRENAKNSLYLQMNSLKSEDTAMYYCARHSGYGTHWGVLFAYWGQGTMVTVSS VL: DIQMTQSTSTLSASVGDRVTITCRASQDISNYLNWYQQRPDGSVKLLIYYTSILHSGVPSRFSGSGSGTDYTLTISSLQDEDFATYFCQQGNTLPWTFGCGTKVEIKR", "Kd": "0.47 nM"}
